# Assay target: UniProt Q756Z6
# Measurement description: IMPDH activity assay and enzyme kinetics (NADH absorbance at 340 nm), AgIMPDH
# Format: biochemical, A. gossypii
pKi: −log10 of the molar value.
Measurement kind: pKi

Nc1nc2c(ncn2[C@@H]2O[C@H](COP(=O)(O)O)[C@@H](O)[C@H]2O)c(=O)[nH]1 [GMP, guanosine-5′-monophosphate] : 3.22

====

Item-by-item account of pKi
# Assay target: AgIMPDH (Eremothecium gossypii, UniProt Q756Z6)
# Measurement description: IMPDH activity assay and enzyme kinetics (NADH absorbance at 340 nm), AgIMPDH
# Format: biochemical, A. gossypii
# Reported conditions: read-out: Ki
pKi: −log10 of the molar value.
Measurement kind: pKi

Nc1nc2c(ncn2[C@@H]2O[C@H](COP(=O)(O)OP(=O)(O)OP(=O)(O)O)[C@@H](O)[C@H]2O)c(=O)[nH]1 [GTP, guanosine-5′-triphosphate] : 3.80
Nc1nc2c(ncn2[C@@H]2O[C@H](COP(=O)(O)OP(=O)(O)O)[C@@H](O)[C@H]2O)c(=O)[nH]1 [GDP, guanosine-5′-diphosphate] : 3.68

====

# Assay target: HsIMPDH2 (Homo sapiens)
# Construct: His8 (modified pET15b vector, TEV site) (N)
# Measurement description: IMPDH activity assay and enzyme kinetics, HsIMPDH2
Entries annotated with measured Ki
Measurement kind: Ki (µM)

Nc1nc2c(ncn2[C@@H]2O[C@H](COP(=O)(O)OP(=O)(O)O)[C@@H](O)[C@H]2O)c(=O)[nH]1 [GDP, guanosine-5′-diphosphate] : 610
Nc1nc2c(ncn2[C@@H]2O[C@H](COP(=O)(O)OP(=O)(O)OP(=O)(O)O)[C@@H](O)[C@H]2O)c(=O)[nH]1 [GTP, guanosine-5′-triphosphate] : 480

====

# Assay target: AgIMPDH-ΔBateman (Eremothecium gossypii, UniProt Q756Z6, DEL116-235/INS115SQDG)
# Measurement description: Isothermal titration calorimetry, AgIMPDH-ΔBateman
Measurement kind: Kd

Nc1nc2c(ncn2[C@@H]2O[C@H](COP(=O)(O)O)[C@@H](O)[C@H]2O)c(=O)[nH]1 [GMP, guanosine-5′-monophosphate] : 22 µM

====

# Assay target: AgIMPDH (Eremothecium gossypii)
# Measurement description: biochemical
Measurement kind: Kd (µM)

Nc1nc2c(ncn2[C@@H]2O[C@H](COP(=O)(O)O)[C@@H](O)[C@H]2O)c(=O)[nH]1 [GMP, guanosine-5′-monophosphate] : 24

====

# Assay target: HsIMPDH1 (Homo sapiens)
# Construct: His8 (modified pET15b vector, TEV site) (N)
# Sequence (P20839 whole entry): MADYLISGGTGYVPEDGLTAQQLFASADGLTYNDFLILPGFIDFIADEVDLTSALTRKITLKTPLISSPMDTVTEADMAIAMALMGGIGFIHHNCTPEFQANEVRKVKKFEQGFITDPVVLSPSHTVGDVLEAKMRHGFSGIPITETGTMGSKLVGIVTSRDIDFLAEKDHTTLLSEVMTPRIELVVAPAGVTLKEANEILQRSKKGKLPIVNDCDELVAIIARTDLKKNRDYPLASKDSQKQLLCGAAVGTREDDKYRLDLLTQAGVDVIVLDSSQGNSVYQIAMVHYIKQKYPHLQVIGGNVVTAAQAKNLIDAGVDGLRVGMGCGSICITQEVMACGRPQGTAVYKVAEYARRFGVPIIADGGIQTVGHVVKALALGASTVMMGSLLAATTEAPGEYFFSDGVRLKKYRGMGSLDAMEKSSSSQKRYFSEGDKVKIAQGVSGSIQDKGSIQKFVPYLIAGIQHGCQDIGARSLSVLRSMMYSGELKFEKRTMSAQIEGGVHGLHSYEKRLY
# Measurement description: IMPDH activity assay and enzyme kinetics, HsIMPDH1
Measurement kind: Ki (µM)

Nc1nc2c(ncn2[C@@H]2O[C@H](COP(=O)(O)OP(=O)(O)O)[C@@H](O)[C@H]2O)c(=O)[nH]1 [GDP, guanosine-5′-diphosphate] : 230
Nc1nc2c(ncn2[C@@H]2O[C@H](COP(=O)(O)OP(=O)(O)OP(=O)(O)O)[C@@H](O)[C@H]2O)c(=O)[nH]1 [GTP, guanosine-5′-triphosphate] : 540

====

# Assay target: EcIMPDH (Escherichia coli)
# Construct: His8 (TEV site) (N, cleaved yes)
# Sequence (P0ADG7 whole entry): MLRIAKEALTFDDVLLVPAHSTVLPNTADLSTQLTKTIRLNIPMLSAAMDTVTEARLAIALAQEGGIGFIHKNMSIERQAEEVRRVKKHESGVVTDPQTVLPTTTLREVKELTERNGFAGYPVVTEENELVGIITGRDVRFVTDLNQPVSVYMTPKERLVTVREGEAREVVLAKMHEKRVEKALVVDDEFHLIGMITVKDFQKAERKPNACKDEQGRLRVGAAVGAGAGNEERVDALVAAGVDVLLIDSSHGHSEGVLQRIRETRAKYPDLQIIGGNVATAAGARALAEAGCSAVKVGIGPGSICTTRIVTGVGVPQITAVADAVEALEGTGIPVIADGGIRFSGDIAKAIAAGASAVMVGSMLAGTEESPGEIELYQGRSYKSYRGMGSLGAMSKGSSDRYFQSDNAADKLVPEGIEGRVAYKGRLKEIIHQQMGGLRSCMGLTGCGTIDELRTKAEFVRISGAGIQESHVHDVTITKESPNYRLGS
# Measurement description: biochemical
pKi: −log10 of the molar value.
Measurement kind: pKi

Nc1nc2c(ncn2[C@@H]2O[C@H](COP(=O)(O)O)[C@@H](O)[C@H]2O)c(=O)[nH]1 [GMP, guanosine-5′-monophosphate] : 2.96
